measurement_protocol: NCI Yeast Anticancer Drug Screen. Data for the mec2-1 strain (AID 157)
experimental_parameters: S. cerevisiae mec2-1 strain, at 50.0 µM (retest, dose inferred, filed as 5.0), stronger effect = higher value
About 79,000 compounds went through this panel and 15% of them were active in at least one assay; those are over-represented in the sample as a whole.
Values of growth inhibition greater than or equal to 90% map to y; values below map to n.

Confirm if growth inhibition reported for the molecule O=C(O)CCCCCCCCC(=O)CCl is 90% or above.
y

Given O=C1OC(=O)c2cccc3cccc1c23 , state whether its growth inhibition is at least 90%.
y

Hi team, for COc1ccc2nc3cc(Cl)ccc3c(NCCCCCCNc3c4ccc(Cl)cc4nc4ccc(OC)nc34)c2n1 , is the recorded growth inhibition at or above 90%?
n

Can CCC(=C(c1ccc(OCCN(C)C)cc1)c1cccc(O)c1)c1ccccc1 (mixture of isomers) be said to have growth inhibition at or above 90%?
y

Check if growth inhibition >= 90% (inclusive). Item: CC(C)SC(=S)Nc1cc(Cl)c(Cl)cc1Cl
n
